- TEST DESCRIPTION: Time for peak concentration (tmax) at a dose of 10 mg/kg in rats
- Format: ADME, organism-based
- Design: dose 10 mg/kg
- CONDITIONS USED: rat, in vivo
OBSERVATION TYPE: Tmax (h)
Your answer should be a plain number; it is taken to be in h.

Entry COc1ccccc1N1CCN(c2c(F)cc3c(=O)c(C(=O)O)cn(C)c3c2C(F)(F)F)CC1 : reported Tmax = ?
2

* * *

- TEST DESCRIPTION: Bioavailability was reported in cynomolgus monkeys (ratio of AUC in oral administration to that of intravenous administration)
- Format: ADME, organism-based
- CONDITIONS USED: cercopithecidae, in vivo, read-out: BA
OBSERVATION TYPE: bioavailability (%)
Your answer should be a plain number; it is taken to be in %.

Cn1cc(C(=O)O)c(=O)c2cc(F)c(N3CCN(c4ncccn4)CC3)c(C(F)(F)F)c21: 112
Cn1cc(C(=O)O)c(=O)c2cc(F)c(N3CCN(c4ccccn4)CC3)c(C(F)(F)F)c21: 93.5

Entry O=C(O)c1cn(C2CC2)c2c(C(F)(F)F)c(N3CCN(c4ccccn4)CC3)c(F)cc2c1=O : reported bioavailability = ?
4.3

* * *

- TEST DESCRIPTION: Peak concentration (Cmax) at a dose of 10 mg/kg in rats
- Assay type: ADME, organism-based
- Set-up: dose 10 mg/kg
- CONDITIONS USED: rat, in vivo
OBSERVATION TYPE: Cmax

Entry COc1ccccc1N1CCN(c2c(F)cc3c(=O)c(C(=O)O)cn(C)c3c2C(F)(F)F)CC1 : reported Cmax = ?
2770 ng/mL

* * *

- TEST DESCRIPTION: Time for peak concentration (tmax) at a dose of 20 mg/kg in rats
- Type: ADME, organism-based
- Parameters: dose 20 mg/kg
- CONDITIONS USED: rat, in vivo
OBSERVATION TYPE: Tmax (h)
Your answer should be a plain number; it is taken to be in h.

COc1ccccc1N1CCN(c2c(F)cc3c(=O)c(C(=O)O)cn(C4CC4)c3c2C(F)(F)F)CC1: 4
Cn1cc(C(=O)O)c(=O)c2cc(F)c(N3CCN(c4ncccn4)CC3)c(C(F)(F)F)c21: 1
Cn1cc(C(=O)O)c(=O)c2cc(F)c(N3CCN(c4ccccn4)CC3)c(C(F)(F)F)c21: 1
CCn1cc(C(=O)O)c(=O)c2cc(F)c(N3CCN(c4ncccn4)CC3)c(C(F)(F)F)c21: 2
O=C(O)c1cn(C2CC2)c2c(C(F)(F)F)c(N3CCN(c4ncccn4)CC3)c(F)cc2c1=O: 1

Entry CCn1cc(C(=O)O)c(=O)c2cc(F)c(N3CCN(c4ccccn4)CC3)c(C(F)(F)F)c21 : reported Tmax = ?
2

Entry O=C(O)c1cn(C2CC2)c2c(C(F)(F)F)c(N3CCN(c4ccccn4)CC3)c(F)cc2c1=O : reported Tmax = ?
2

* * *

- Tested on: MT4
- TEST DESCRIPTION: The compound was tested for cytotoxicity against mock-infected MT-4 cells.
- Assay type: functional
- CONDITIONS USED: Homo sapiens
OBSERVATION TYPE: CC50 (nM)
Your answer should be a plain number; it is taken to be in nM.

O=C(O)c1cn(C2CC2)c2c(C(F)(F)F)c(N3CCN(c4ccccn4)CC3)c(F)cc2c1=O: 1400
COc1ccccc1N1CCN(c2c(F)cc3c(=O)c(C(=O)O)cn(C4CC4)c3c2C(F)(F)F)CC1: 870
Cn1cc(C(=O)O)c(=O)c2cc(F)c(N3CCN(c4ncccn4)CC3)c(C(F)(F)F)c21: 890
CCn1cc(C(=O)O)c(=O)c2cc(F)c(N3CCN(c4ccccn4)CC3)c(C(F)(F)F)c21: 370
Cn1cc(C(=O)O)c(=O)c2cc(F)c(N3CCN(c4ccccn4)CC3)c(C(F)(F)F)c21: 220

Entry CCn1cc(C(=O)O)c(=O)c2cc(F)c(N3CCN(c4ncccn4)CC3)c(C(F)(F)F)c21 : reported CC50 = ?
1500

Entry O=C(O)c1cn(C2CC2)c2c(C(F)(F)F)c(N3CCN(c4ncccn4)CC3)c(F)cc2c1=O : reported CC50 = ?
5200

Data provenance is ChEMBL document CHEMBL1135219.
